- TARGET OR TEST SYSTEM: Rab5 (Homo sapiens)
- Sequence (P20339 1-215): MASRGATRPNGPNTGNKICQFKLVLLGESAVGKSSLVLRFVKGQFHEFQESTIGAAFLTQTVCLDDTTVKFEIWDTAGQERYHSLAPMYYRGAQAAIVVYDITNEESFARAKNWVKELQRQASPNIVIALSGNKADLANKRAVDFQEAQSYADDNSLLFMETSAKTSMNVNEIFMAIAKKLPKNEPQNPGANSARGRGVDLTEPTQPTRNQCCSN
OUTCOME MEASURE: Kd (nM)
Report as a plain number; the unit nM is understood.

Task: Answer with Kd of C=C1CC[C@@H]2[C@](C)(CO[C@@H]3O[C@H](CO)[C@@H](O)[C@H](O)[C@H]3O)CCC[C@@]2(C)[C@@H]1CCC1=CCOC1=O [NAP, Neoandrographolide] measured for Rab5 (Homo sapiens).
Result: 350
